molecular target: UDP-N-acetylmuramoylalanine--D-glutamate ligase (Escherichia coli K-12); assay: Binding affinity to 6x His-tagged and 15N/13C-labeled Escherichia coli MurD ligase measured at NMR signal 56 by 1H/13C-HSQC 2D NMR spectroscopy
Measurement Type: Kd
Put your answer as a value accompanied by its unit after it.

Record N#Cc1ccc(COc2ccc3cc(S(=O)(=O)N[C@H](CCC(=O)O)C(=O)O)ccc3c2)c(F)c1 , field Kd: 5.5 µM

---

Target: UDP-N-acetylmuramoylalanine--D-glutamate ligase (Escherichia coli K-12, UniProt P14900)
Sequence (P14900 whole entry): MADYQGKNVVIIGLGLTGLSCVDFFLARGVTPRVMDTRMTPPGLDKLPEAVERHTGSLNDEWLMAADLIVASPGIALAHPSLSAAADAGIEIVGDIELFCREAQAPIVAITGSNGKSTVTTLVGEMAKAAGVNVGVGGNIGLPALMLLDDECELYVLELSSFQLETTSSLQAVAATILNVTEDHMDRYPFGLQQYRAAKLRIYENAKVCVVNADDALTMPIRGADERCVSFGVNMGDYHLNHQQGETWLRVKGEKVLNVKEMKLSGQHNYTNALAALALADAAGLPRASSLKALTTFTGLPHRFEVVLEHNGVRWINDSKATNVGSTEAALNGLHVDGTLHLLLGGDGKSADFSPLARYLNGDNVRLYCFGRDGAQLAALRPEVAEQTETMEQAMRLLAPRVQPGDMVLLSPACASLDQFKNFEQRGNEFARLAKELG
Assay: Binding affinity to 6x His-tagged and 15N/13C-labeled Escherichia coli MurD ligase measured at NMR signal 71 by 1H/13C-HSQC 2D NMR spectroscopy
Measurement Type: Kd (µM)
Give bare numbers, in µM.

Record O=C1Nc2ccc([N+](=O)[O-])cc2/C1=C1/SC(=S)N(NC(=O)c2cccnc2)C1=O , field Kd: 106

---

molecular target: UDP-N-acetylmuramoylalanine--D-glutamate ligase (Escherichia coli K-12, UniProt P14900); experiment: Binding affinity to 6x His-tagged and 15N/13C-labeled Escherichia coli MurD ligase by 1H/13C-HSQC 2D NMR spectroscopy
Measurement Type: pKd
One number for each entry, as −log10 of the molar value.

Record O=C1Nc2ccc([N+](=O)[O-])cc2/C1=C1/SC(=S)N(NC(=O)c2cccnc2)C1=O , field pKd: 4.01

---

target: UDP-N-acetylmuramoylalanine--D-glutamate ligase (Escherichia coli K-12, UniProt P14900); assay: Binding affinity to 6x His-tagged and 15N/13C-labeled Escherichia coli MurD ligase measured at NMR signal 13 by 1H/13C-HSQC 2D NMR spectroscopy
Measurement Type: pKd
One number for each entry, as −log10 of the molar value.

Record N#Cc1ccc(COc2ccc3cc(S(=O)(=O)N[C@H](CCC(=O)O)C(=O)O)ccc3c2)c(F)c1 , field pKd: 5.15

---

Molecular target: UniProtKB P14900
Sequence (P14900 whole entry): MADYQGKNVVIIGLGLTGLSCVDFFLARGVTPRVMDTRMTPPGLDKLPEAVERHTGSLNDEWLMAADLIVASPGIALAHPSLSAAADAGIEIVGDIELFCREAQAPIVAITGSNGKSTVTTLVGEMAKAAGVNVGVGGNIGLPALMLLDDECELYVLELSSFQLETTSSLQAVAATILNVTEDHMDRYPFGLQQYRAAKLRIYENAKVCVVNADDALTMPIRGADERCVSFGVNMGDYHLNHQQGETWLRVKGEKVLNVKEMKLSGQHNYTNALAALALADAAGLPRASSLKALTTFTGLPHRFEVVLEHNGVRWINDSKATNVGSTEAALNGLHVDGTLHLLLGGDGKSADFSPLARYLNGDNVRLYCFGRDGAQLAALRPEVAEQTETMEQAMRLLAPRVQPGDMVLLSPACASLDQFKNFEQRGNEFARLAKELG
Experiment: Binding affinity to 6x His-tagged and 15N/13C-labeled Escherichia coli MurD ligase measured at NMR signal 4 by 1H/13C-HSQC 2D NMR spectroscopy
So I've got a bunch of compounds here, and I need their pKd values.
Numbers only, as −log10 of the molar value.

O=C1Nc2ccc([N+](=O)[O-])cc2/C1=C1/SC(=S)N(NC(=O)c2cccnc2)C1=O
3.95

Note: attention shifts to another entry.
Record CCCCOc1ccc2cc(S(=O)(=O)N[C@H](CCC(=O)O)C(=O)O)ccc2c1 , field pKd: 3.68
